assay: Toxicity in mouse assessed as induction of mortality; details: in vivo
measured_metric: LD50

Entry O=C1C[C@@H]2OCC=C3CN4CC[C@]56c7ccccc7N1[C@H]5[C@H]2[C@H]3C[C@H]46.O=S(=O)(O)O : reported LD50 = ?
< 2 mg/kg

====

experiment: Toxicity in Artemia salina by brine shrimp lethality assay; conditions: in vivo
measured_metric: LC50 (µM)
# unit: µM | format: bare number

Entry O=C1C[C@@H]2OCC=C3CN4CC[C@]56c7ccccc7N1[C@H]5[C@H]2[C@H]3C[C@H]46.O=S(=O)(O)O : reported LC50 = ?
200
